pEC50 by entry:
# procedure details: Inhibition of Leishmania donovani Top1 (large/ small subunits) expressed in Escherichia coli BL21 (DE3) pLysS cells assessed as decrease in supercoiled pBS(SK+) DNA isomer relaxation preincubated for 5 mins followed by pBS(SK+) DNA addition by agarose gel electrophoresis
pEC50: −log10 of the molar value.
parameter measured: pEC50

{"smiles input": "COc1ccc(-c2csc(/C=C3/NC(=S)NC3=O)c2)cn1", "result": 4.20}
{"smiles input": "COc1cc(/C=C2/NC(=S)NC2=O)cc(OC)c1OC", "result": "< 4.00"}
{"smiles input": "COc1ccc(/C=C2/NC(=S)NC2=O)cc1", "result": "< 4.00"}
{"smiles input": "Cn1cc(/C=C2/NC(=S)NC2=O)c2ccccc21", "result": "< 4.00"}
{"smiles input": "COc1ccc(/C=C2/NC(=S)NC2=O)cc1C", "result": "< 4.00"}
{"smiles input": "COc1cc(/C=C2/NC(=O)NC2=O)cc(OC)c1OC", "result": "< 4.00"}
{"smiles input": "COc1ccc(-c2ccc(/C=C3/NC(=O)NC3=O)s2)cn1", "result": "< 4.00"}
{"smiles input": "COc1ccc(-c2ccc(/C=C3/NC(=S)NC3=O)s2)cn1", "result": 4.19}
{"smiles input": "Cc1ccc(/C=C2/NC(=S)NC2=O)cc1", "result": "< 4.00"}
{"smiles input": "COc1ccc(/C=C2/NC(=O)NC2=O)cc1C", "result": "< 4.00"}
{"smiles input": "Cc1cc(C)cc(/C=C2/NC(=O)NC2=O)c1", "result": "< 4.00"}
{"smiles input": "O=C1NC(=S)N/C1=C/c1ccc(-c2cccnc2)s1", "result": 4.26}
{"smiles input": "O=C1NC(=O)/C(=C\\c2cc(Br)cs2)N1", "result": "< 4.00"}
{"smiles input": "COc1cccc(/C=C2/NC(=S)NC2=O)c1", "result": "< 4.00"}
{"smiles input": "O=C1NC(=S)N/C1=C/c1cc(Br)cs1", "result": "< 4.00"}
{"smiles input": "COc1ccc(/C=C2/NC(=O)NC2=O)cc1OC", "result": "< 4.00"}
{"smiles input": "COc1ccc(/C=C2/NC(=S)NC2=O)cc1OC", "result": "< 4.00"}
{"smiles input": "COc1ccc(-c2csc(/C=C3/NC(=O)NC3=O)c2)cn1", "result": "< 4.00"}
{"smiles input": "O=C1NC(=S)N/C1=C/c1ccc([N+](=O)[O-])cc1", "result": "< 4.00"}
{"smiles input": "Cc1ccc(/C=C2/NC(=O)NC2=O)cc1", "result": "< 4.00"}
